Tested on: SK-MEL-2 melanoma
Assay: NCI tumour cell line growth inhibition, 48 h
We begin with a simple list: items and their reported TGI.

1. CC(=O)Oc1ccc2oc(=O)cc(C)c2c1; > 100 µM
2. CC(C)=NNc1ncnc2c1ncn2C1OC(CO)C(O)C1O (stereo not drawn); 29.2 µM
3. CC(C)(C)N/N=C(\C(=O)Nc1ccc([N+](=O)[O-])cc1[N+](=O)[O-])c1nc2ccc([N+](=O)[O-])cc2[nH]c1=O; > 100 µM

// recorded TGI for CC[C@]1(Cc2ccc(OC)c(OC)c2)[C@@H]2C[C@@H](C(=O)OC)ON2O[C@H](OC2CCCC2(c2ccccc2)c2ccccc2)[C@@H]1OC(C)=O (stereo partly drawn) : > 100 µM

// recorded TGI for CCCCCCCCCCCC[C@H](O)[C@H]1CC[C@H]([C@H](O)CCCC[C@H](O)CCCCC[C@@H](O)CC2=C[C@H](C)OC2=O)O1 : 36.2 µM

// recorded TGI for Cn1cc(C2=C(c3c4n(c5ccccc35)CCN(C(N)=S)C4)C(=O)NC2=O)c2ccccc21 : 13 µM

// recorded TGI for O=S(=O)(c1ccccc1)C1CN2OC1(S(=O)(=O)c1ccccc1)CC21CCCCC1 (stereo not drawn) : > 100 µM

// recorded TGI for Cc1ccc(S(=O)(=O)NCCN(CCNS(=O)(=O)c2ccc(C)cc2)S(=O)(=O)c2ccc(C)cc2)cc1 : > 100 µM

----------
System: SK-OV-3 ovarian
Assay: NCI tumour cell line growth inhibition, 48 h; in the data active means GI50 below about 0.43 µM; inactive means the rest
Lab note: assign the record to one of yes (active), no (inactive)

Some solved entries appear below for comparison.
1) FC(F)(F)CNc1nccc(-c2cnn3ncccc23)n1; no
2) CCn1cc(C(=O)N/N=C/c2ccc(Br)cc2)c(=O)c2cc(F)c(N3CCNC(C)C3)c(F)c21 (configuration not stated); no
3) CC1SC(c2ccc(Cl)c(Cl)c2)N(NC(=O)C(O)c2ccccc2)C1=O (configuration not stated); no
4) Cc1cc(I)cc(CN(C)CCN2CCOCC2)c1O; no
5) COc1ccc(-c2c(C#N)c(N)nc3c2COc2ccc(F)cc2-3)cc1OC; no
6) COc1cc(-c2nn(-c3ccc(NC(=O)NCCCNC(=O)c4ccccc4)cc3)cc2-c2ccncc2)ccc1Cl; no
7) CCC(=C/[C@H](C)C/C=C/C(C)=C/[C@@H](C)C(=O)[C@@H](C)[C@H](O)[C@@H](C)CC)/C=C/[C@@H]1OC(=O)C=C[C@@H]1C; yes
8) O=C(Nc1cccc(Cl)c1)Nc1cc2ncncc2cc1OCc1cccc(F)c1; no

input: Name the outcome recorded for O=C(CNc1c(Cl)cccc1Cl)Nc1ccc(-c2nc3ccccc3s2)cc1 in the assay.
output: no

input: Name the outcome recorded for COc1cc(NC(=O)c2ccc(C(F)(F)F)nc2Nc2ccc(Cl)cc2C)cc(OC)c1OC in the assay.
output: no

input: Name the outcome recorded for O=[N+]([O-])c1ccc2scc3c4ccccc4nc-3c2c1 in the assay.
output: no

input: Name the outcome recorded for Cc1cc(Nc2ncc(F)c(N[C@H]3[C@@H](C(N)=O)[C@@H]4C=C[C@H]3C4)n2)ccc1N1CCN(C)CC1 in the assay.
output: yes

----------
Tested on: NCI-H226 lung
Test: NCI tumour cell line growth inhibition, 48 h; in the data active means GI50 below about 0.43 µM; inactive means the rest
*1 amine or outer side, *2 acyl side, *3 side chain or, on linkers, in order; H or OH if unused. Where a SMILES comes first, the peptide text is derived from it. Bridges are numbered along the chain shown (N, C = ends). [ ]: non-standard residue; d: D form. The star is where a group is joined. Phe(3,5-F2) = N[C@@H](Cc1cc(F)cc(F)c1)C(=O)O; Pro(4R-Me) = C[C@H]1CN[C@H](C(=O)O)C1; aThr = C[C@H](O)[C@H](N)C(=O)O; Pip = O=C(O)[C@@H]1CCCCN1; X10 = Fc1cc(C2CC2)ccc1N*; Abu = CC[C@H](N)C(=O)O; CO = O=C([*:1])[*:2]
Lab note: assign the record to one of T for active, F for inactive

Some solved entries appear below for comparison.
1. CCn1cc(C(=O)N/N=C/c2ccc(Br)cc2)c(=O)c2cc(F)c(N3CCNC(C)C3)c(F)c21 (stereo not drawn); F
2. COc1cc(NC(=O)c2ccc(C(F)(F)F)nc2Nc2cc(Cl)ccc2C)cc(OC)c1OC; F
3. Oc1ccc(CCl)c2cccnc12; F
4. COc1cc2c(cc1OCCCNC(=O)/C=C1/C[C@H]3C=Nc4cc(OCc5ccccc5)c(OC)cc4C(=O)N3C1)NC(=O)[C@@H]1CCCN1C2=O; F

input: Name the outcome recorded for CC(C)=NNc1ncnc2c1ncn2C1OC(CO)C(O)C1O (stereo not drawn) in the assay.
output: F

input: Name the outcome recorded for CC1SC(c2ccc(Cl)c(Cl)c2)N(NC(=O)C(O)c2ccccc2)C1=O (stereo not drawn) in the assay.
output: F

input: Name the outcome recorded for Cn1cc(C2=C(c3c4n(c5ccccc35)CCN(C(N)=S)C4)C(=O)NC2=O)c2ccccc21 in the assay.
output: F

input: Name the outcome recorded for COc1cc(-c2nn(-c3ccc(NC(=O)NCCCNC(=O)c4ccccc4)cc3)cc2-c2ccncc2)ccc1Cl in the assay.
output: F

input: Name the outcome recorded for CC[C@@H]1NC(=O)[C@@H]2CCCCN2C(=O)[C@@H]2CCCN2C(=O)[C@@H](NC(=O)[C@H](Cc2cc(F)cc(F)c2)NC(=O)Nc2ccc(C3CC3)cc2F)[C@H](C)OC(=O)[C@@H]2C[C@@H](C)CN2C1=O ({X10-CO}-[Phe(3,5-F2)][aThr]P[Pip][Abu][Pro(4R-Me)]; ester 2-C) in the assay.
output: T

input: Name the outcome recorded for O=C(CNc1c(Cl)cccc1Cl)Nc1ccc(-c2nc3ccccc3s2)cc1 in the assay.
output: F

input: Name the outcome recorded for FC(F)(F)CNc1nccc(-c2cnn3ncccc23)n1 in the assay.
output: F

input: Name the outcome recorded for Fc1ccc(-c2nnc3sc(-c4cc(Cl)cc(Cl)c4)nn23)cc1Cl in the assay.
output: F

input: Name the outcome recorded for O=[N+]([O-])c1ccc2scc3c4ccccc4nc-3c2c1 in the assay.
output: F
